These measurements were taken from ChEMBL document CHEMBL4689842.

tested on: HEK-293T; experiment: Multiplex assay against HEK293T; type: toxicity, cell-based; settings: human, 12 h, 1 µM, compound concentration 1 uM, replicate 1;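 also: share of the cells with healthy nuclei that show this phenotype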
recorded metric: Population Tubulin-Different-Phenotype (%)
Give the value, in units of %, as a plain number.

Task item: Look up Population Tubulin-Different-Phenotype (%) with HEK-293T for this compound: C=CC(=O)Nc1ccc2[nH]c(=O)n(C3CCN(Cc4ccc(-c5nc6cc[nH]c(=O)c6cc5-c5ccccc5)cc4)CC3)c2c1 [Borussertib]
Reply: 5

Task item: // repeat for COc1ccc(-c2ccc3ncc4c(c3c2)n(-c2ccc(N3CCNCC3)c(C(F)(F)F)c2)c(=O)n4C)cn1.O=C(O)/C=C\C(=O)O [BGT-226] and report
Reply: 87

Task item: // repeat for C[C@]12CC[C@@H]3c4ccc(O)cc4CC[C@H]3[C@@H]1CC[C@@H]2O [ESTRADIOL] and report
Reply: 41

Task item: // repeat for CC(C)CC(=O)Nc1[nH]nc2c1CN(C(=O)C1CCN(C)CC1)C2(C)C [PHA-793887] and report
Reply: 2

Task item: // repeat for "C=CC(=O)Nc1cccc(Sc2nc(Nc3ccc(N4CCN(C)CC4)cc3)ncc2Cl)c1" and report
Reply: 58

Task item: // repeat for "CC(C)OC(=O)N1CCC(Oc2ncnc3c2cnn3-c2ccc(S(C)(=O)=O)cc2F)CC1" and report
Reply: 39

Task item: // repeat for CCCSc1nc(N[C@@H]2C[C@H]2c2ccc(F)c(F)c2)c2nnn([C@@H]3C[C@H](OCCO)[C@@H](O)[C@H]3O)c2n1 [TICAGRELOR] and report
Reply: 54

---

Exercise: for every item that follows, state its recorded Population Normal (%).
system: Fibroblast; experiment: Multiplex assay against human fibroblast; format: toxicity, cell-based; conditions: 12 h, 10 µM, compound concentration 10 uM, replicate 1
Give the value, in units of %, as a plain number.

Task item: Item "CC(C)OC(=O)N1CCC(Oc2ncnc3c2cnn3-c2ccc(S(C)(=O)=O)cc2F)CC1" has what recorded Population Normal (%)?
Reply: 89

Task item: // repeat for Cc1ccccc1C(c1ccccc1C)N1C2CCC1CC(O)(c1ccccc1)C2 (configuration not stated) and report
Reply: 85

Task item: // repeat for "Cc1nc(N2CC[C@H](O)C2)ncc1-c1cc(C(F)(F)F)cc2[nH]ncc12" and report
Reply: 84

Task item: // repeat for "CC(C)Oc1ccccc1C(=O)Nc1ccccc1C(=O)Nc1cccc(S(=O)(=O)C(F)(F)F)c1" and report
Reply: 88

Task item: // repeat for "COc1ccccc1CN[C@H]1C2CCN(CC2)[C@H]1C(c1ccccc1)c1ccccc1" and report
Reply: 86

Task item: // repeat for COc1cc2ncn(-c3cc(OCc4ccccc4C(F)(F)F)c(C(N)=O)s3)c2cc1OC [GW843682X] and report
Reply: 82

Task item: // repeat for "Cc1c[nH]c2nccc(Oc3c(F)cc(Nc4cc(Cl)nc(N)n4)cc3F)c12" and report
Reply: 90

---

tested on: Fibroblast; assay: Multiplex assay against human fibroblast; format: toxicity, cell-based; settings: 24 h, 10 µM, compound concentration 10 uM, replicate 1
The label depends only on Population Mitotic Cells (%): 1 if it is at least 30%, 0 if it is smaller.

Task item: API: above_or_equal(metric=Population Mitotic Cells (%), cutoff=30%) for item "COc1cc(Nc2nccc(-c3cnn4nc(OC)ccc34)n2)cc(C(F)(F)F)c1"
Reply: 1

Task item: // repeat for "C[C@]12CC[C@@H]3c4ccc(O)cc4CC[C@H]3[C@@H]1CC[C@@H]2O" and report
Reply: 0

Task item: // repeat for O=C(c1cc2c(cc1F)OC(c1ccc(F)cc1)(c1ccc(Cl)cc1Cl)O2)N1CCOCC1 (stereo not given) and report
Reply: 1

Task item: // repeat for "Cc1nc(N2CC[C@H](O)C2)ncc1-c1cc(C(F)(F)F)cc2[nH]ncc12" and report
Reply: 1

Task item: // repeat for Cc1ccc2c(c1)c1c(n2CCc2ccc(C)nc2)CCN(C)C1 [LATREPIRDINE] and report
Reply: 1
